assay: clinical; conditions: human, in vivo, po, Human blood level, mean, 3 h; single oral dose 500 mg D,L-lysine salt (Table 5) or equivalent 300 mg sodium salt (Table 6); serum, as free acid
endpoint: concentration at 3 h (ng/mL)
Give just the number in ng/mL; leave the unit off.

Sure, the documented concentration at 3 h for CC(C)Cc1ccc(C(C)C(=O)[O-])cc1.[Na+] (stereo not shown) is 10800

---

test: clinical; conditions: human, in vivo, po, Human blood level, 4 h; subject D; single oral dose 500 mg D,L-lysine salt (Table 5) or equivalent 300 mg sodium salt (Table 6); serum, as free acid
endpoint: concentration at 4 h (ng/mL)
Give just the number in ng/mL; leave the unit off.

Sure, the documented concentration at 4 h for CC(C)Cc1ccc(C(C)C(=O)[O-])cc1.[Na+] (stereo not shown) is 7300
